Every entry's value here was drawn from patent US20220089698A1.

Neutralization IC50 overview
- Study Target: HIV-1 envelope glycoprotein (gp120) of virus 7141 (HIV-1)
- Experiment Notes: cell-based or functional assay
Assay Endpoint: Neutralization IC50 (µg/mL)

[[record]]
binder = "3.1.18-1 (antibody, human IgG1, kappa, V domains shown) VH: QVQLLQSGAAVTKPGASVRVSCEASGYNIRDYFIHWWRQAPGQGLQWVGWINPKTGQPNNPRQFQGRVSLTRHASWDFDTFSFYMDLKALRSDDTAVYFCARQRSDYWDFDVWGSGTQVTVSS VL: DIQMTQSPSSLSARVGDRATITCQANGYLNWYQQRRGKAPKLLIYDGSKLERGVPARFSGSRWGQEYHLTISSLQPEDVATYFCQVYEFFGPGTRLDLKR"
assay_endpoint = "Neutralization IC50"
lt_gt_eq = ">"
assay_result = 9.8

[[record]]
binder = "1.1.117-1 (antibody, human IgG1, kappa, V domains shown) VH: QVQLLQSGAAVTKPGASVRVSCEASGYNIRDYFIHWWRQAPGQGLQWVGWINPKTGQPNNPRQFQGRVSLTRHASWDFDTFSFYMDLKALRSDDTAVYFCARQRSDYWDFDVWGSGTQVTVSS VL: DIQMTQSPSSLSASVGDTATITCQANGYLNWYQQRRGKAPKLLIYDGSKLERGVPSRFSGRRWGQEYILTINNLQPEDIATYFCQVYEFFGPGTRLDLKR"
assay_endpoint = "Neutralization IC50"
lt_gt_eq = "="
assay_result = 16.9

[[record]]
binder = "2.2.15-1 (antibody, human IgG1, kappa, V domains shown) VH: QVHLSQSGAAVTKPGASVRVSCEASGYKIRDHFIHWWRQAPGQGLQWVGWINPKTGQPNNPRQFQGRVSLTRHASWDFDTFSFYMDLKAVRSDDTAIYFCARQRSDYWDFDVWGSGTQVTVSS VL: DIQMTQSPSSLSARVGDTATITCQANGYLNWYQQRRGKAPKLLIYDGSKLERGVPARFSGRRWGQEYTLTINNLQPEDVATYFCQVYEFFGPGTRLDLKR"
assay_endpoint = "Neutralization IC50"
lt_gt_eq = "="
assay_result = 1.99

